# Experiment Description: Cytotoxicity to ATH8 cells cultured with the nucleoside (trypan blue viable cell count)
# Assay type: cell-based
# Particulars: human; 100 μM; ATH8 cells
Metric Name: cytotoxicity at 100 µM (%)
Number only, in %; omit the unit.

# annotated cases, reported cytotoxicity at 100 µM shown
| Molecule | Metric Name | Observed Result |
| --- | --- | --- |
| Cc1cn([C@H]2CC[C@@H](CO)O2)c(=O)nc1N | cytotoxicity at 100 µM | 44 |
| Cc1cn([C@H]2CC[C@@H](CO)O2)c(=O)[nH]c1=O | cytotoxicity at 100 µM | 13 |
| Nc1ncnc2c1ncn2[C@H]1CC[C@@H](COP(=O)(O)O)O1 [Compound 25, 2',3'-dideoxyadenosine-5'-phosphate] | cytotoxicity at 100 µM | 0 |

// sample Nc1ncnc2c1ncn2[C@H]1CC[C@@H](CO)O1 , its cytotoxicity at 100 µM was 0

====

# Experiment Description: Cytotoxicity to ATH8 cells cultured with the nucleoside (trypan blue viable cell count)
# Format: cell-based
# Particulars: human; 200 μM; ATH8 cells; read-out: Cytotoxicity (%)
Metric Name: cytotoxicity at 200 µM
State the value, then name its unit.

| Molecule | cytotoxicity at 200 µM |
| --- | --- |
| Nc1nc(=O)n([C@H]2CC[C@@H](CO)O2)cc1Br | 0% |
| Cc1cn([C@H]2CC[C@@H](CO)O2)c(=O)[nH]c1=O | 6% |
| Nc1ncnc2c1ncn2[C@H]1CC[C@@H](COP(=O)(O)O)O1 [Compound 25, 2',3'-dideoxyadenosine-5'-phosphate] | 5% |

Proceeding to the next molecule to report its cytotoxicity at 200 µM.
// sample Nc1ncnc2c1ncn2[C@H]1CC[C@@H](CO)O1 , its cytotoxicity at 200 µM was 0%

====

Parameter cytotoxicity at 1 µM: see the listing below.
# Experiment Description: Cytotoxicity to ATH8 cells cultured with the nucleoside (trypan blue viable cell count)
# Format: cell-based
# Particulars: human; 1 μM; ATH8 cells
Number only, in %; omit the unit.

| Compound | cytotoxicity at 1 µM (%) |
| --- | --- |
| Nc1ncn([C@H]2CC[C@@H](CO)O2)c(=O)n1 [Compound 10, 2',3'-Dideoxy-5-azacytidine] | 13 |
| Nc1ncnc2c1ncn2[C@H]1CC[C@@H](CO)O1 [Compound 2] | 0 |
| Nc1nc(=O)n([C@H]2CC[C@@H](CO)O2)cc1Br [Compound 17, 2',3'-Dideoxy-5-bromocytidine] | 14 |

Proceeding to the next compound to report its cytotoxicity at 1 µM.
// sample Nc1ncnc2c1ncn2[C@H]1CC[C@@H](COP(=O)(O)O)O1 [Compound 25, 2',3'-dideoxyadenosine-5'-phosphate] , its cytotoxicity at 1 µM was 2

====

# Experiment Description: Cytotoxicity to ATH8 cells cultured with the nucleoside (trypan blue viable cell count)
# Assay type: cell-based
# Particulars: human; 1000 μM; ATH8 cells
Metric Name: cytotoxicity at 1000 µM (%)
Number only, in %; omit the unit.

// sample Cc1cn([C@H]2CC[C@@H](CO)O2)c(=O)[nH]c1=O [Compound 3, dideoxythymidine] , its cytotoxicity at 1000 µM was 40

====

Parameter cytotoxicity at 50 µM: see the listing below.
# Experiment Description: Cytotoxicity to ATH8 cells cultured with the nucleoside (trypan blue viable cell count)
# Type: cell-based
# Particulars: human, ath8 cells
State the value, then name its unit.

// sample Cc1cn([C@H]2CC[C@@H](COP(=O)(O)O)O2)c(=O)[nH]c1=O , its cytotoxicity at 50 µM was 9%

// sample Nc1ccn([C@H]2CC[C@@H](CO)O2)c(=O)n1 , its cytotoxicity at 50 µM was 30%
